- Tested on: P. falciparum 3D7
- assay.comment: Secondary screen: parasite growth inhibition by parasite lactate dehydrogenase (pLDH) assay, 3D7
- Assay type: cell-based, Plasmodium falciparum
- measurement.setup: Plasmodium falciparum; 3D7 strain, class by IC50; read-out: Antiplasmodial activity class on 3D7
// IC50 lookup, one value per entry

>  <compound>
O=C(c1ccc(F)cc1)C1CCN(Cc2ccc(F)cc2)CC1 [Compound 1]

>  <IC50>
5 to 10 µg/mL

$$$$
>  <compound>
Cc1ccc(CN2CCC(C(=O)c3ccc(F)cc3)CC2)cc1 [Compound 6]

>  <IC50>
≥ 10 µg/mL

$$$$
>  <compound>
O=[N+]([O-])c1ccccc1CN1CCC(C(O)c2ccc(F)cc2)CC1 (stereo not shown) [Compound 10]

>  <IC50>
≥ 10 µg/mL

$$$$
>  <compound>
O=C(c1ccc(F)cc1)C1CCN(Cc2ccc(Br)cc2)CC1 [Compound 5]

>  <IC50>
≥ 10 µg/mL

$$$$

Data provenance is paper PMC6033213.
